Entry source: the supplement of paper PMC11208160

- ASSAY_REMARKS: recombinant UMI read abundance after kanamycin selection (control-corrected) (log10(CPM+1)); higher = more efficient recombination; extreme values may be limits of the assay; sequences stand for … in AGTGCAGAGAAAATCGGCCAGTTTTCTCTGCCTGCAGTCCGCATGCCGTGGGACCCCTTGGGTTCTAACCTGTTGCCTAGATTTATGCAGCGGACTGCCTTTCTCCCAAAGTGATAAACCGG…AGGTTGGTTTCACT; site = the 11-nt donor;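 note: IS621 bridge recombinase in Escherichia coli cells against a fixed T5 target plasmid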
MEASURED_ENDPOINT: recombinant UMI read abundance (log10)

>>> result("CTCGTATCATGGACCGGTTTTCCCGGTAATCCGTATTTGTC (site CTCGTATCTGA)")
2.69
>>> result("TATTTGGCATGGACCGGTTTTCCCGGTAATCCGTATTTGTG (site TATTAGGCTCA)")
0.00968
>>> result("ACCTCGGCATGGACCGGTTTTCCCGGTAATCCGTATTTGTT (site ACCTCGGCTAA)")
0.681
>>> result("TAAGCTGCATGGACCGGTTTTCCCGGTAATCCGTATTTGTG (site TTAGCTGCTCA)")
0.00901
>>> result("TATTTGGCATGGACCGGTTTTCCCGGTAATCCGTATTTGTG (site TATTTCGCTCA)")
0.00607
>>> result("TAGCCTTCATGGACCGGTTTTCCCGGTAATCCGTATTTGGT (site TAGCATTCTAC)")
0.0053
>>> result("TGCTAGTCATGGACCGGTTTTCCCGGTAATCCGTATTTGGT (site TGCTAGGCTAC)")
0.00963
>>> result("GTATTAACATGGACCGGTTTTCCCGGTAATCCGTATTTGTG (site GTATTAACTCA)")
2.02
>>> result("ACTAGCGCATGGACCGGTTTTCCCGGTAATCCGTATTTGGT (site ACTAGCGCTAC)")
1.86
>>> result("TGGTCCCCATGGACCGGTTTTCCCGGTAATCCGTATTTGTA (site TGTTCCCCTTA)")
0.00825
>>> result("GACACGACATGGACCGGTTTTCCCGGTAATCCGTATTTGGG (site GACACGACTCC)")
0.173
>>> result("TGATCATCATGGACCGGTTTTCCCGGTAATCCGTATTTGGT (site TGATCATCTAC)")
1.42
>>> result("GTGGGTACATGGACCGGTTTTCCCGGTAATCCGTATTTGTT (site GTGGGTACTAA)")
1.15
>>> result("AAGCACGCATGGACCGGTTTTCCCGGTAATCCGTATTTGGG (site AAGCAAGCTCC)")
0.0142
>>> result("GGCATTCCATGGACCGGTTTTCCCGGTAATCCGTATTTGAA (site GGCAGTCCTTT)")
0.00406
>>> result("CAATCATCATGGACCGGTTTTCCCGGTAATCCGTATTTGCT (site CTATCATCTAG)")
0.404
>>> result("ACAGTATCATGGACCGGTTTTCCCGGTAATCCGTATTTGAA (site ACAGTATCTTT)")
3.04
>>> result("ACAGTATCATGGACCGGTTTTCCCGGTAATCCGTATTTGTA (site ACAGTATCTTG)")
2.51
>>> result("GTGACACCATGGACCGGTTTTCCCGGTAATCCGTATTTGTT (site GTGACACCTAA)")
0.00775
>>> result("TCAGAGACATGGACCGGTTTTCCCGGTAATCCGTATTTGCC (site TCAGAGACTTG)")
1.62
>>> result("CGATCAGCATGGACCGGTTTTCCCGGTAATCCGTATTTGTT (site CGATCAGCTAA)")
1.59
>>> result("CGATCGTCATGGACCGGTTTTCCCGGTAATCCGTATTTGCT (site CGATCATCTAG)")
2.15
>>> result("GGGAAGACATGGACCGGTTTTCCCGGTAATCCGTATTTGGT (site GGGAAGACTAC)")
0.836
>>> result("ATTCTCTCATGGACCGGTTTTCCCGGTAATCCGTATTTGTA (site CTTCTCTCTTA)")
2.42
>>> result("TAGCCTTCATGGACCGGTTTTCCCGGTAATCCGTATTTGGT (site TAGCTTTCTAC)")
0
>>> result("GAATCTCCATGGACCGGTTTTCCCGGTAATCCGTATTTGAA (site GAATCTCCTTT)")
0.611
>>> result("GCGTTGACATGGACCGGTTTTCCCGGTAATCCGTATTTGAG (site GCGTTGACTCT)")
1.98
>>> result("CACTCCTCATGGACCGGTTTTCCCGGTAATCCGTATTTGCT (site CACTCCTCTAG)")
3.09
>>> result("AGAAAGGCATGGACCGGTTTTCCCGGTAATCCGTATTTGCT (site GGAAAGGCTAG)")
0.0101
